Reported IC50 values for a set of compounds
test system: Type III-dependent secretion of ExoU by P. aeruginosa PA103; experiment: Tertiary assay: Type III-dependent secretion of ExoU by P. aeruginosa PA103; type: cell-based; settings: Pseudomonas aeruginosa, ExoU secreted into extracellular medium
# value in µM; strip the unit string

O=C(N[C@@H](CSCc1ccccc1)C(=O)O)/C(=C\c1ccc(Oc2ccccc2)cc1)NC(=O)c1ccc(Br)cc1 [Compound 20] : 37
O=C(NC(Cc1ccc(F)cc1)C(=O)O)/C(=C\c1ccc(-c2ccccc2)cc1)NC(=O)c1ccc(C(F)(F)F)cc1 (stereo not shown) [Compound 54] : 19
O=C(O)C[C@@H](CNC(=O)/C(=C\c1cccc(C(F)(F)F)c1)NC(=O)c1ccc(-c2ccccc2)cc1)c1ccc(Cl)cc1 [Compound 62] : 87.8
O=C(N[C@@H](COCc1ccccc1)C(=O)O)/C(=C\c1ccc(-c2ccccc2)cc1)NC(=O)c1ccc(C(F)(F)F)cc1 [Compound 23] : 29
O=C(N[C@@H](CSCc1ccccc1)C(=O)O)/C(=C\c1ccc(Cl)c(Cl)c1)NC(=O)C1CCN(c2nccc(C(F)(F)F)n2)CC1 [Compound 74] : 33.8

Bench note, Type III-dependent secretion of ExoU by P. aeruginosa PA103: O=C(NC(CCSCc1ccccc1)C(=O)O)/C(=C\c1cccc(C(F)(F)F)c1)NC(=O)c1ccc(-c2ccccc2)cc1 (stereo not shown) [Compound 98] , IC50 reads 13

Bench note, Type III-dependent secretion of ExoU by P. aeruginosa PA103: O=C(NC(Cc1ccc(Cl)cc1)C(=O)O)/C(=C\c1ccc(-c2ccccc2)cc1)NC(=O)c1ccc(C(F)(F)F)cc1 (stereo not shown) [Compound 55] , IC50 reads 13

Bench note, Type III-dependent secretion of ExoU by P. aeruginosa PA103: O=C(N[C@@H](CSCc1ccccc1)C(=O)O)/C(=C\c1cccc(C(F)(F)F)c1)NC(=O)C1CCN(c2nccc(C(F)(F)F)n2)CC1 [Compound 78] , IC50 reads 67.3

Bench note, Type III-dependent secretion of ExoU by P. aeruginosa PA103: O=C(N[C@@H](CSCc1ccccc1)C(=O)O)/C(=C\c1ccc(-c2ccccc2)cc1)NC(=O)c1ccc(C(F)(F)F)cc1 [Compound 121] , IC50 reads 25

Bench note, Type III-dependent secretion of ExoU by P. aeruginosa PA103: O=C(N[C@@H](CSCc1ccccc1)C(=O)O)/C(=C\c1cccc(Br)c1)NC(=O)c1ccc(Oc2ccccc2)cc1 [Compound 48] , IC50 reads 24.8

Bench note, Type III-dependent secretion of ExoU by P. aeruginosa PA103: O=C(NC(CCSCc1ccccc1)C(=O)O)/C(=C\c1ccc(-c2ccccc2)cc1)NC(=O)c1ccc(C(F)(F)F)cc1 (stereo not shown) [Compound 122] , IC50 reads 25

Bench note, Type III-dependent secretion of ExoU by P. aeruginosa PA103: O=C(N[C@@H](Cc1ccc(Cl)cc1)C(=O)O)/C(=C\c1cccc(C(F)(F)F)c1)NC(=O)c1ccc(-c2ccccc2)cc1 [Compound 38] , IC50 reads 17.3

Bench note, Type III-dependent secretion of ExoU by P. aeruginosa PA103: O=C(N[C@@H](CSCc1ccccc1)C(=O)O)/C(=C\c1ccc(Oc2ccccc2)cc1)NC(=O)c1ccc(C(F)(F)F)cc1 [Compound 17] , IC50 reads 49
